# measured_target: T1, hFLAG-EGF34+NRR-His6 (101V), the human Notch1 NRR immunogen (human Notch1 V1307-Q1733) (human, UniProt P46531 1307-1733)
# T1 construct: Secreted from Sf-9 cells; also called hNotch1 NRR; human NRR1
# T1 sequence (P46531 other isoform, or with tags, fused parts or gaps limits assumed): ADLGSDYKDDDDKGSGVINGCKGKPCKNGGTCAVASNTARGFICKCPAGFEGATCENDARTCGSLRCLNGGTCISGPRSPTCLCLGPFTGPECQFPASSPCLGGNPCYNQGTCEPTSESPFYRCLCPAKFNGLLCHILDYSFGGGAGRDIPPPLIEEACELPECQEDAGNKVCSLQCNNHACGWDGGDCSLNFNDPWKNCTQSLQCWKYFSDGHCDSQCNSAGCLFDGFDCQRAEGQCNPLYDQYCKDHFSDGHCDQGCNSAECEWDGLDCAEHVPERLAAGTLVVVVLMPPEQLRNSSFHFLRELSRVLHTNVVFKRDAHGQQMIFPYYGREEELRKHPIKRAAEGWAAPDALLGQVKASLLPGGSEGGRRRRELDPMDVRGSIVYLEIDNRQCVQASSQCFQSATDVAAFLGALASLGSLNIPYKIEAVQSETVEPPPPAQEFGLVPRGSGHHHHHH
# method_summary: SPR (BIAcore-3000), IgG captured on rabbit anti-human IgG, NRR1-ECD protein injected 3.9-500 nM, 25 C, 1:1 Langmuir
quantity_kind: pKd
As a rule, pKd stands for the negative log10 of the concentration, concentration in M.

binder	pKd
Antibody A (antibody, IgG1, V domains shown, also called anti-Notch1 NRR Antibody A; Antibody A-hIgG1) VH: EVQLVESGGGLVQPGGSLRLSCAASGFTFSSYWIHWVRQAPGKGLEWVARINPSNGSTNYADSVKGRFTISADTSKNTAYLQMNSLRAEDTAVYYCARGSGFRWVMDYWGQGTLVTVSS VL: DIQMTQSPSSLSASVGDRVTITCRASQDVSTAVAWYQQKPGKAPKLLIYSASFLYSGVPSRFSGSGSGTDFTLTISSLQPEDFATYYCQQSYTTPPTFGQGTKVEIKR	6.87
Antibody A-1 (antibody, IgG1, V domains shown, also called Antibody A-1-hIgG1) VH: EVQLVESGGGLVQPGGSLRLSCAASGFTFSSYWIHWVRQAPGKGLEWVARINPPNGSAHYADSVKGRFTISADTSKNTAYLQMNSLRAEDTAVYYCARGSGFRWVMDYWGQGTLVTVSS VL: DIQMTQSPSSLSASVGDRVTITCRASQDVSTAVAWYQQKPGKAPKLLIYSASFLYSGVPSRFSGSGSGTDFTLTISSLQPEDFATYYCQQSYTTPATFGQGTKVEIKR	8.46
Antibody A-2 (antibody, IgG1, V domains shown, also called Antibody A-2-hIgG1) VH: EVQLVESGGGLVQPGGSLRLSCAASGFTFSSYWIHWVRQAPGKGLEWVARINPPNRSNQYADSVKGRFTISADTSKNTAYLQMNSLRAEDTAVYYCARGSGFRWVMDYWGQGTLVTVSS VL: DIQMTQSPSSLSASVGDRVTITCRASQDVSTAVAWYQQKPGKAPKLLIYSASFLYSGVPSRFSGSGSGTDFTLTISSLQPEDFATYYCQQFYTTPSTFGQGTKVEIKR	8.60

Here is another binder to look at.
pKd reported for this binder Antibody A-3 (antibody, V domains shown) VH: EVQLVESGGGLVQPGGSLRLSCAASGFTFSSYWIHWVRQAPGKGLEWVARINPANGSTRYADSVKGRFTISADTSKNTAYLQMNSLRAEDTAVYYCARGSGFRWVMDYWGQGTLVTVSS VL: DIQMTQSPSSLSASVGDRVTITCRASQDVSTAVAWYQQKPGKAPKLLIYSASFLYSGVPSRFSGSGSGTDFTLTISSLQPEDFATYYCQQSFSTPATFGQGTKVEIKR : 8.23
